# System: FOXM1^A2 mRNA and FOXM1^BC mRNA
# experiment.notes: Splicing assay (FOXM1), qPCR of isoform mRNAs
# Type: cell-based
# condition.parameters: read-out: Splice EC50 (nM) FoxM1 A mRNA increase (exon excluded)
measurement.kind: EC50

smiles.code	tested.target	experimental.value
CN(c1ccc(-c2ccc(-c3cn[nH]c3)cc2O)nn1)[C@@H]1C[C@@H]2C[C@H]1CN2	FOXM1^A2 mRNA and FOXM1^BC mRNA	101 to 250 nM
CN(c1ccc(-c2ccc(-c3cn[nH]c3)cc2O)nn1)[C@@H]1C[C@H]2C[C@@H]1CN2	FOXM1^A2 mRNA and FOXM1^BC mRNA	> 1000 nM
CN(c1ccc(-c2ccc(-c3cn[nH]c3)cc2O)nn1)[C@H]1C[C@@H]2C[C@H]1CN2	FOXM1^A2 mRNA and FOXM1^BC mRNA	251 to 500 nM
CN(c1cnc(-c2ccc(-c3cn[nH]c3)cc2O)nc1)C1CC(C)(C)NC(C)(C)C1	FOXM1^A2 mRNA and FOXM1^BC mRNA	> 1000 nM
CNC(=O)c1cc2cc(O)c(-c3ccc(N(C)[C@H]4C[C@]5(C)CC[C@](C)(C4)N5)nn3)cc2o1	FOXM1^A2 mRNA and FOXM1^BC mRNA	< 10 nM
C[C@]12CC[C@](C)(C[C@@H](Oc3ccc(-c4ccc(-c5cn[nH]c5)cc4O)nn3)C1)N2	FOXM1^A2 mRNA and FOXM1^BC mRNA	10 to 100 nM
CN(c1ccc(-c2ccc(-c3ccn(C)c(=O)n3)cc2O)nn1)[C@H]1C[C@]2(C)CC[C@](C)(C1)N2	FOXM1^A2 mRNA and FOXM1^BC mRNA	10 to 100 nM

###

The compounds listed here are annotated with their pIC50.
# System: FOXM1^A2 mRNA and FOXM1^BC mRNA
# experiment.notes: Splicing assay (FOXM1), qPCR of isoform mRNAs
# Type: cell-based
# condition.parameters: 24 h, MDA-MB-231-luc cells; 24 hours; table does not say EC50 or IC50; read-out: FOXM1
pIC50: −log10 of the molar value.

smiles.code	pIC50
CC1(C)CC(N(c2ccc(-c3ccc(-c4cn[nH]c4)cc3O)nn2)C2CC2)CC(C)(C)N1	> 9.00
CN(c1ccc(-c2ccc(-c3cn[nH]c3)cc2O)nn1)[C@@H]1C[C@H]2CC[C@@H](C1)N2	7.00 to 7.96
CN(c1ccc(-c2ccc(-c3cn[nH]c3)cc2O)nn1)[C@@H]1C[C@H]2CCC[C@@H](C1)N2	7.00 to 7.96

###

The compounds listed here are annotated with their IC50.
# System: A-673 cells
# experiment.notes: Cell viability, crystal violet staining
# Format: cell-based
# condition.parameters: Homo sapiens, A673, cell viability, read-out: A-673 IC50 (nM) Cell viability
measurement.kind: IC50

compound	experimental.value
CN(c1ccc(-c2ccc(-c3cn[nH]c3)cc2O)nn1)[C@@H]1C[C@H]2CCC[C@@H](C1)N2	< 10 nM
CN(c1ccc(-c2ccc(-n3cnc(F)c3)cc2O)nn1)[C@H]1C[C@]2(C)CC[C@](C)(C1)N2	10 to 100 nM
CCN(c1ccc(-c2ccc(-c3cn[nH]c3)cc2O)nn1)[C@H]1C[C@]2(C)CC[C@](C)(C1)N2	10 to 100 nM
CN(c1ccc(-c2ccc(-c3cn[nH]c3)cc2O)nn1)[C@H]1C[C@H]2C[C@@H]1CN2	> 1000 nM
CN(c1ccc(-c2ccc(-c3cn[nH]c3)cc2O)nn1)[C@H]1C[C@@H]2C[C@H]1CN2	> 1000 nM
CN(c1ccc(-c2ccc(-c3cn[nH]c3)cc2O)nc1)C1CC(C)(C)NC(C)(C)C1	> 1000 nM
CN(c1ccc(-c2cc3cccnc3cc2O)nn1)[C@@H]1C[C@H]2CC[C@@H](C1)N2	251 to 500 nM
[2H]C([2H])([2H])n1cc(-c2ccc(-c3ccc(N(C)[C@H]4C[C@]5(C)CC[C@](C)(C4)N5)nn3)c(O)c2)cn1	10 to 100 nM
CN(c1ccc(-c2ccc(-c3cn[nH]c3)cc2O)nn1)[C@@H]1C[C@H]2CNC[C@H]2C1	> 1000 nM
CN(c1ccc(-c2ccc(-c3cc(C#N)n(C)c3)cc2O)nn1)[C@H]1C[C@]2(C)CC[C@](C)(C1)N2	501 to 1000 nM
CNC(=O)c1cc2cc(-c3ccc(N(C)[C@H]4C[C@]5(C)CC[C@](C)(C4)N5)nn3)c(O)cc2o1	10 to 100 nM
[2H]C([2H])([2H])Oc1cc(-c2cc(O)c(-c3ccc(N(C)[C@H]4C[C@]5(C)CC[C@](C)(C4)N5)nn3)cc2F)cnn1	< 10 nM
CN(c1ccc(-c2cc(F)c(-c3cc(=O)n(C)cn3)cc2O)nn1)[C@H]1C[C@]2(C)CC[C@](C)(C1)N2	< 10 nM
CN(c1ccc(-c2ccc(-c3cn[nH]c3)cc2O)nn1)[C@@H]1C[C@H]2C[C@@H]1CN2	> 1000 nM
CN(c1ccc(-c2ccc(-c3ccn(C)c(=O)n3)cc2O)nn1)[C@H]1C[C@]2(C)CC[C@](C)(C1)N2	101 to 250 nM
COc1cc(-c2cc(O)c(-c3ccc(N(C)[C@H]4C[C@]5(C)CC[C@](C)(C4)N5)nn3)cc2F)cnn1	< 10 nM
CN(c1ccc(-c2ccc(-c3cc(=O)n(C)cn3)cc2O)nn1)[C@H]1C[C@]2(C)CC[C@](C)(C1)N2	10 to 100 nM
CN(c1ccc(-c2ccc(-c3cnn(C(F)F)c3)cc2O)nn1)[C@H]1C[C@]2(C)CC[C@](C)(C1)N2	10 to 100 nM
Oc1cc(-c2cn[nH]c2)ccc1-c1ccc(N2CCC3CNCCC32)nn1 (stereo not shown)	> 1000 nM
CN(c1ccc(-c2cc3ccc(OC(F)F)cc3cc2O)nn1)[C@@H]1C[C@H]2CC[C@@H](C1)N2	501 to 1000 nM
COc1cccc(-c2ccc(-c3ccc(N(C)[C@H]4C[C@]5(C)CC[C@](C)(C4)N5)nn3)c(O)c2)c1	> 1000 nM
CN(c1ccc(-c2ccc(-c3cn[nH]c3)cc2O)nn1)[C@@H]1C[C@]2(C)COC[C@](C)(C1)N2	> 1000 nM
C[C@]12CC[C@](C)(C[C@H](Oc3ccc(-c4ccc(-c5cn[nH]c5)cc4O)nn3)C1)N2	> 1000 nM
CN(c1ccc(-c2ccc(-c3cn[nH]c3)cc2O)nn1)[C@@H]1[C@@H]2CC[C@H]1CNC2	501 to 1000 nM
Oc1cc(-c2cn[nH]c2)ccc1-c1ccc(O[C@H]2C[C@H]3CC[C@@H](C2)N3)nn1	> 1000 nM
CN(c1ccc(-c2ccc(-c3ncn(C)c(=O)n3)cc2O)nn1)[C@H]1C[C@]2(C)CC[C@](C)(C1)N2	251 to 500 nM
CC1(C)CC(N(c2ccc(-c3ccc(-c4cn[nH]c4)cc3O)nn2)C2CCC2)CC(C)(C)N1	> 1000 nM
CN(c1ccc(-c2ccc(-c3cn[nH]c3)cc2O)nn1)[C@H]1[C@@H]2CC[C@H]1CNC2	> 1000 nM

###

The compounds listed here are annotated with their EC50.
# Tested on: FOXM1^A2 mRNA and FOXM1^BC mRNA
# experiment.notes: Splicing assay (FOXM1), qPCR of isoform mRNAs
# Assay type: cell-based
# condition.parameters: read-out: Splice EC50 (nM) FoxM1 A mRNA increase (exon excluded)
measurement.kind: EC50

compound	tested.target	measurement.kind	experimental.value
CN(c1ccc(-c2ccc(-c3cn[nH]c3)cc2O)nn1)[C@@H]1C[C@H]2CCC[C@@H](C1)N2 [compound 160]	FOXM1^A2 mRNA and FOXM1^BC mRNA	EC50	< 10 nM
CN(c1ccc(-c2ccc(-c3cn[nH]c3)cc2O)nn1)[C@H]1C[C@]2(C)CC[C@](C)(C1)N2 [compound 151]	FOXM1^A2 mRNA and FOXM1^BC mRNA	EC50	< 10 nM
C[C@]12CC[C@](C)(C[C@H](Oc3ccc(-c4ccc(-c5cn[nH]c5)cc4O)nn3)C1)N2 [compound 153]	FOXM1^A2 mRNA and FOXM1^BC mRNA	EC50	> 1000 nM
CN(c1ccc(-c2ccc(-c3cn[nH]c3)cc2O)nn1)[C@@H]1[C@@H]2CC[C@H]1CNC2 [compound 144]	FOXM1^A2 mRNA and FOXM1^BC mRNA	EC50	> 1000 nM
CN(c1ccc(-c2ccc(-c3cnn(C)c(=O)c3)cc2O)nn1)[C@H]1C[C@]2(C)CC[C@](C)(C1)N2 [compound 170]	FOXM1^A2 mRNA and FOXM1^BC mRNA	EC50	< 10 nM
CN(c1ccc(-c2ccc(-c3cn[nH]c3)cc2O)nn1)[C@H]1C[C@H]2CNC[C@H]2C1 [compound 142]	FOXM1^A2 mRNA and FOXM1^BC mRNA	EC50	251 to 500 nM
CN(c1ccc(-c2ccc(-c3cn[nH]c3)cc2O)nn1)[C@@H]1C[C@H]2CNC[C@H]2C1 [compound 143]	FOXM1^A2 mRNA and FOXM1^BC mRNA	EC50	251 to 500 nM
Oc1cc(-c2cn[nH]c2)ccc1-c1ccc(O[C@@H]2C[C@H]3CC[C@@H](C2)N3)nn1 [compound 140]	FOXM1^A2 mRNA and FOXM1^BC mRNA	EC50	10 to 100 nM
CN(c1ccc(-c2ccc(-c3ccn(C)c(=O)c3)cc2O)nn1)[C@H]1C[C@]2(C)CC[C@](C)(C1)N2 [compound 168]	FOXM1^A2 mRNA and FOXM1^BC mRNA	EC50	> 1000 nM
CN(c1ccc(-c2cc(F)c(-c3cn[nH]c3)cc2O)nn1)[C@H]1C[C@]2(C)CC[C@](C)(C1)N2 [compound 167]	FOXM1^A2 mRNA and FOXM1^BC mRNA	EC50	< 10 nM
CN(c1ccc(-c2cc(F)c(-c3ccn(C)c(=O)c3)cc2O)nn1)[C@H]1C[C@]2(C)CC[C@](C)(C1)N2 [compound 169]	FOXM1^A2 mRNA and FOXM1^BC mRNA	EC50	> 1000 nM
CN(c1ccc(-c2cc(F)c(-c3cn[nH]c3)cc2O)nn1)[C@@H]1C[C@H]2CC[C@@H](C1)N2 [compound 161]	FOXM1^A2 mRNA and FOXM1^BC mRNA	EC50	< 10 nM
COCCN(c1ccc(-c2ccc(-c3cn[nH]c3)cc2O)nn1)C1CC(C)(C)NC(C)(C)C1 [compound 133]	FOXM1^A2 mRNA and FOXM1^BC mRNA	EC50	501 to 1000 nM
CN(c1ccc(-c2ccc(-c3cn[nH]c3)cc2O)nn1)[C@H]1[C@@H]2CNC[C@@H]21 [compound 137]	FOXM1^A2 mRNA and FOXM1^BC mRNA	EC50	> 1000 nM
